test system: Rattus norvegicus; assay: Locomotor activity, measured for 30 min after injection of drug, administered subcutaneously at 100 umol/kg; assay type: functional
MEASUREMENT_KIND: Control
The number alone won't do; follow it with the unit.

CCCN1CCC(c2cccnc2)C1 (configuration not stated) ... 15%
CCCN1CCC(c2cccc(O)c2)C1 (configuration not stated) ... 20%
CCCN1CCC(c2ccccc2)C1 (configuration not stated) ... 115%
CCCN1CCC[C@@H](c2cccc(S(C)(=O)=O)c2)C1 ... 135%
CCCN1CCC(c2cccc(C(F)(F)F)c2)C1 (configuration not stated) ... 89%

# batch size: 2; output Control per entry
1. CCCN1CCC(c2cccc(S(C)(=O)=O)c2)C1 (configuration not stated)
2. c1ccc2c(C3CCNC3)cccc2c1 (configuration not stated)

1: 126%; 2: 129%

---

system: Rattus norvegicus; test: Locomotor activity, measured for 30 min after injection of drug, administered subcutaneously at 100 umol/kg; format: functional
Could you label it Yes if measured Control is 80% or higher, and No otherwise?

CCCN1CCC(C2CCCCC2)C1 (configuration not stated) ... Yes
CCCN1CCC(c2cccc(OS(=O)(=O)C(F)(F)F)c2)C1 (configuration not stated) ... Yes
O=C(CCCN1CCC(O)(c2ccc(Cl)cc2)CC1)c1ccc(F)cc1 ... No
CS(=O)(=O)c1cccc(C2CCNC2)c1 (configuration not stated) ... No
CN1CCC(C2=CN=CCC2)C1 (configuration not stated) ... No

With those in mind, consider the next compound.
Could you please find out whether FC(F)(F)c1cccc(C2CCNC2)c1 (configuration not stated) has Control that meets 80% or exceeds it?
No

---

Can you tell me Control for the items I'm about to list?
tested on: Rattus norvegicus; experiment: Accumulation of Dihydroxyphenylalanine in limbic region in rat after injecting drug compound 65 min and NSD 1015 at a dose of 100 mg/kg administered subcutaneously, 30 min before death, tested in vivo; type: functional, Limbic system; conditions: route subcutaneous
Numbers only, in %.

Worked set:
CN1CCC(C2=CN=CCC2)C1 (stereo not drawn) ... 112
CCCN1CCC(c2cccc3ccccc23)C1 (stereo not drawn) ... 118
CS(=O)(=O)c1cccc(C2CCNC2)c1 (stereo not drawn) ... 89
CCCN1CCC(c2ccccc2)C1 (stereo not drawn) ... 96
CCCN1CCC(c2cccnc2)C1 (stereo not drawn) ... 111
CCCN1CCC(c2cccc(OS(=O)(=O)C(F)(F)F)c2)C1 (stereo not drawn) ... 211
CCCN1CCC(c2cccc(O)c2)C1 (stereo not drawn) ... 113
FC(F)(F)c1cccc(C2CCNC2)c1 (stereo not drawn) ... 113

# batch size: 3; output Control per entry
1. c1ccc2c(C3CCNC3)cccc2c1 (stereo not drawn)
2. CCCN1CCC(c2cccc(S(C)(=O)=O)c2)C1 (stereo not drawn)
3. CCCN1CCC(c2cccc(C(F)(F)F)c2)C1 (stereo not drawn)

[92, 207, 205]

# batch size: 2; output Control per entry
1. CCCN1CCC[C@@H](c2cccc(S(C)(=O)=O)c2)C1
2. CCCN1CCC(C2CCCCC2)C1 (stereo not drawn)

228
116
